assay system: T1, GST-HttExon1Q21 (recombinant huntingtin exon 1 protein with 21 polyQ repeats fused to an N-terminal GST tag) (human, UniProt P08515 1-218 = GST; P42858 1-88)
T1 construct: Expressed in E. coli BL21; also called GST-HD21; soluble GST-HD21; not shown: PreScission cleavage site
T1 sequence (P08515 1-218, tags or fused parts left off): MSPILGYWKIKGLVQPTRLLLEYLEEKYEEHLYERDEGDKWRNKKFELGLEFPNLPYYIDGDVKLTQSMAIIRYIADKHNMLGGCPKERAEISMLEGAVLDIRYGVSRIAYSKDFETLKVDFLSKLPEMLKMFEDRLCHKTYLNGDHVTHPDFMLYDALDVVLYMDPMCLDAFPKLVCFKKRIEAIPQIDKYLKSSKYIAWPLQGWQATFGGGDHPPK
method description: direct ELISA, antigen coated at 5 ug/ml
measured metric: binding result

Request: Sample NI-302.35C1 (antibody, V domains shown, also called anti-C-terminal domain antibody) VH: EVQLVESGGNLVQPGGSLRLSCTASGFTFSITALSWVRQAPEKGPQWVSAITGNAYGTYYADSVKGRFTISRDNAKNTLYLQMNGLRAEDTAIYYCVKGIASDSSGYSAFWGPGTLVTVSS VL: EIVLTQSPATLSLSPGERATLSCRASQSVDNQFAWYQQKPGQAPRLLIYDASRRAPGIPDRFSGSGSGTDFTLTISSLEPEDFAIYYCQHRYTWLYTFGQGTRLEIK — what was its binding result?
Response: binds

Request: Sample NI-302.63F3 (antibody, V domains shown, also called anti-P-rich domain antibody; anti-proline-rich domain antibody) VH: QVQLVQSGSAFKKPGTSVKVSCKASGYTFETRSMNWVRQAPGQGLEYMGWINTNTGNRTYVQAFRGRFVFSLDTSVSTAYLQISNLKTEDTAVYYCARGAGGGYWFDSWGQGTLVTVSS VL: DIQMTQSPDSLAVSLGERATINCKSNQSLFYSSNNNNYLAWYQHKSGQPPKLLVYWGSTRESGVPDRFSGSGSGTDFTLTISSLQAEDVAIYYCHQYYHNPYTFGQGTKLEIK — what was its binding result?
Response: binds

Request: Sample NI-302.4A6 (antibody, V domains shown) VH: EVQLVESGGGLVQPGGSLRLSCAASGFTFSAYAMSWVRQAPGKGLEWVSTISGSGGSTYYADSVKGRFSISRDNSKNTLYLQMNSLRAEDTAVYFCAKVTTELYGANSYYYYMDVWGKGTTVTVSS VL: EIVLTQSPGTLSLSPGERATLSCRASQSVVSRYLAWYQQKPGQAPRLLIYGASSRATGIPDRFSGSGSGTDFTLTISRLEPEDFAMYYCQLYGNSQTFGQGTKVEIK — what was its binding result?
Response: binds
